All values here come from patent US20240360157A1.

# Test Target: human TYK2 catalytic kinase (JH1) domain (Homo sapiens (Human))
# Sequence (P29597 897-1176): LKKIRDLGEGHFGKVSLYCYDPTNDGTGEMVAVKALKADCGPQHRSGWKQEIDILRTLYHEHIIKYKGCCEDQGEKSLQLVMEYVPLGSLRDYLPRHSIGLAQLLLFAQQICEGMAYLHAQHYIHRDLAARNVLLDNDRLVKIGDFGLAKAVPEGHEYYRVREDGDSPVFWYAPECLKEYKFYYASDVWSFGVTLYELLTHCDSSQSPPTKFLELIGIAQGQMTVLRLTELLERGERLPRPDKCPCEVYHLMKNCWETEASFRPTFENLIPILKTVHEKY
# Measurement Protocol: ADP-Glo Kinase Assay, recombinant TYK2 catalytic kinase (JH1) domain
# Format: biochemical
# Setup Conditions: recombinant JH1 domain 2 nM, 10 μM ATP, JAK3-974 peptide, mean, read-out: TYK2 biochem IC50 (nM) Mean
Kindly state IC50 for each of the entries shown.
Give bare numbers, in nM.

Study these solved cases before continuing.
Compound | Test Target | Value Unit | IC50
O=C([C@@H]1C[C@H]1F)N1C2CCC1CN(c1ccnc3[nH]c(C4(F)CC4)nc13)C2 | human TYK2 catalytic kinase (JH1) domain (Homo sapiens (Human)) | nM | 398
Cn1cc(-c2nc3c(N4CC5CCC(C4)N5C(=O)[C@@H]4C[C@H]4F)ccnc3[nH]2)cn1 | human TYK2 catalytic kinase (JH1) domain (Homo sapiens (Human)) | nM | 0.4

// for each compound in input: emit IC50
1. Cc1cnc(-c2cc3c(N4CC5CCC(C4)N5C(=O)[C@@H]4C[C@H]4F)ccnn3c2)cn1
2. CNc1nccc(-c2cc3c(N4CC5CCC(C4)N5C(=O)[C@@H]4C[C@H]4F)ccnn3c2)n1
3. Cn1cc(-c2cc3c(N4CC5CCC(C4)N5C(=O)[C@H]4C[C@H]4C#N)ncnn3c2)cn1 (single isomer, unassigned) [Example 85]

(A)
[50.7, 8.8, 751]

// each listed compound needs a value for IC50
1. CCC(=O)N1C2CCC1CN(c1ncnn3cc(-c4cnn(C(F)F)c4)cc13)C2
2. O=C([C@@H]1C[C@H]1F)N1C2CCC1CN(c1ccnc3[nH]c(C4CCOC4)nc13)C2 (stereo partly shown)
3. O=C(C1C[C@H]1F)N1C2CCC1CN(c1ncnc3[nH]c(-c4ccncc4F)cc13)C2 (stereo partly shown)
4. N#CC1CC1c1nc2c(N3CC4CCC(C3)N4C(=O)[C@@H]3C[C@H]3F)ccnc2[nH]1 (stereo partly shown)
5. Cn1cc(-c2cc3c(N4CC5CCC(C4)N5C(=O)C4CC(F)C4)ncnn3c2)cn1 (stereo not shown)
6. COc1cc(-c2cc3c(N4CC5CCC(C4)N5C(=O)[C@@H]4C[C@H]4F)ccnc3[nH]2)ccn1

(A)
[560, 676, 13.1, 484, 694, 0.4]

Your task in this section: give IC50 for each listed record.
1. O=C([C@@H]1C[C@H]1F)N1C2CCC1CN(c1ncnn3cc(-c4cnn(C(F)F)c4)cc13)C2 [Example 1]
2. O=C([C@@H]1C[C@H]1F)N1C2CCC1CN(c1ccnc3[nH]c(N4CCOCC4)nc13)C2
3. Cc1c(-c2cc3c(N4CC5CCC(C4)N5C(=O)C4CC4)ncnn3c2)cnn1C
4. CNc1cc(-c2nc3c(N4CC5CCC(C4)N5C(=O)[C@@H]4C[C@H]4F)ccnc3[nH]2)ccn1

(A)
[9, 30.5, 317, 0.4]

IC50 in this record for `N#Cc1cccc(-c2cc3c(N4CC5CCC(C4)N5C(=O)C4CC4)ncnn3c2)c1` : 830

###

# Test Target: human JAK1 catalytic kinase (JH1) domain (Homo sapiens (Human))
# Measurement Protocol: ADP-Glo Kinase Assay, recombinant JAK1 catalytic kinase (JH1) domain
# Type: biochemical
# Setup Conditions: recombinant JH1 domain 4 nM, 35 μM ATP, JAK3-342 peptide, mean, read-out: JAK1 biochem IC50 (nM) Mean
# Protocol: Compounds of the disclosure were assessed for their ability to inhibit TYK2, JAK1, JAK2, and JAK3 activity. The inhibitory properties of the compounds of the disclosure described herein can be evidenced by testing in any one of the following protocols. The kinase activity of recombinantly generated catalytic kinase (also known as JH1) domain of human JAK1, JAK2, JAK3 and TYK2 were evaluated in a plate-based assay using the ADP-Glo™ Kinase Assay platform. […]
Property: IC50 (nM)
One number for each entry, in nM.

State recorded IC50 for all listed molecules.
1. O=C(C1CC1)N1C2CCC1CN(c1ncnn3cc(-c4ccc(Cl)nc4)cc13)C2
2. Cn1cc(-c2cc3c(N4CC5CCC(C4)N5C(=O)[C@H]4C[C@H]4C#N)ncnn3c2)cn1 (racemic) [Example 65]
3. O=C(C1C(F)(F)C12CCC2)N1C2CCC1CN(c1ncnn3cc(-c4cnn(C(F)F)c4)cc13)C2 (centres unmarked)
4. Cc1ccc(-c2cc3c(N4CC5CCC(C4)N5C(=O)[C@@H]4C[C@H]4F)ccnn3c2)nn1
5. O=C(C1CC1)N1C2CCC1CN(c1ccnn3cc(-c4cnn(C(F)(F)F)c4)cc13)C2
6. COc1ncnc(-c2cc3c(N4CC5CCC(C4)N5C(=O)[C@@H]4C[C@H]4F)ccnn3c2)c1F
7. O=C([C@@H]1C[C@H]1F)N1C2CCC1CN(c1ncnn3cc(-c4ccnc(F)c4)cc13)C2

(A)
1. 5400
2. 6090
3. 960
4. 236
5. 356
6. 862
7. 447

###

# Test Target: human JAK2 catalytic kinase (JH1) domain (Homo sapiens (Human), UniProt O60674)
# Sequence (O60674 849-1124): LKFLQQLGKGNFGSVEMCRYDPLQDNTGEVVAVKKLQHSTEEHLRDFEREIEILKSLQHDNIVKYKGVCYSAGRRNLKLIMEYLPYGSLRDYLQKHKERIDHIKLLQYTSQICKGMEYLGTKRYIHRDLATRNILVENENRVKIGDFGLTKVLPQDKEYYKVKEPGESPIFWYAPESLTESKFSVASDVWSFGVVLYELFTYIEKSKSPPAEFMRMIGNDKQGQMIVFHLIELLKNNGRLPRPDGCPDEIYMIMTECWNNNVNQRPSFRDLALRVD
# Measurement Protocol: ADP-Glo Kinase Assay, recombinant JAK2 catalytic kinase (JH1) domain
# Assay type: biochemical
# Setup Conditions: recombinant JH1 domain 0.2 nM, 15 μM ATP, JAK3-974 peptide, mean, read-out: JAK2 biochem IC50 (nM) Mean
# Experimental: Compounds of the disclosure were assessed for their ability to inhibit TYK2, JAK1, JAK2, and JAK3 activity. The inhibitory properties of the compounds of the disclosure described herein can be evidenced by testing in any one of the following protocols. The kinase activity of recombinantly generated catalytic kinase (also known as JH1) domain of human JAK1, JAK2, JAK3 and TYK2 were evaluated in a plate-based assay using the ADP-Glo™ Kinase Assay platform. […]
Property: IC50 (nM)
One number for each entry, in nM.

Molecule | IC50 [nM]
O=C([C@@H]1C[C@H]1F)N1C2CCC1CN(c1ncnn3cc(-c4cnn(C(F)F)c4)cc13)C2 [Example 1] | 315
O=C([C@H]1C[C@@H]1F)N1C2CCC1CN(c1ncnn3cc(-c4cnn(C(F)F)c4)cc13)C2 [Example 4] | 1450
O=C(C1CC(F)(F)C1)N1C2CCC1CN(c1ncnn3cc(-c4cnn(C(F)F)c4)cc13)C2 | 7180

For each of the molecules below, state IC50.
1. O=C(C1C(F)(F)C12CCC2)N1C2CCC1CN(c1ncnn3cc(-c4cnn(C(F)F)c4)cc13)C2 (stereo not shown)
2. O=C(C1CC1)N1C2CCC1CN(c1ncnn3cc(-c4ccc(Cl)nc4)cc13)C2
3. COc1ccc(-c2cc3c(N4CC5CCC(C4)N5C(=O)[C@@H]4C[C@H]4F)ncnc3[nH]2)cn1
4. Cn1ccc(-c2cc3c(N4CC5CCC(C4)N5C(=O)[C@@H]4C[C@H]4F)ccnn3c2)cc1=O
5. Cn1cc(-c2cc3c(N4CC5CCC(C4)N5S(=O)(=O)C4CC4)ccnc3[nH]2)cn1

(A)
3960
10000
357
28
36

###

# Test Target: human JAK3 catalytic kinase (JH1) domain (Homo sapiens (Human))
# Sequence (P52333 822-1111): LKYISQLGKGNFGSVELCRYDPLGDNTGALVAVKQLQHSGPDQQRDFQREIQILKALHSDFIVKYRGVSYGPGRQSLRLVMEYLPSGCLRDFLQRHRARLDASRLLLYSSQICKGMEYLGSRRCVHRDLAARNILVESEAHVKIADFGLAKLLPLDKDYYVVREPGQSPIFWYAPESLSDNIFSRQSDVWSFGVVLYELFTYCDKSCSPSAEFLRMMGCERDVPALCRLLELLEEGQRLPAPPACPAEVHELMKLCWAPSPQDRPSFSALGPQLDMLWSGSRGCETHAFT
# Measurement Protocol: ADP-Glo Kinase Assay, recombinant JAK3 catalytic kinase (JH1) domain
# Type: biochemical
# Setup Conditions: recombinant JH1 domain 0.3 nM, 4 μM ATP, JAK3-974 peptide, mean, read-out: JAK3 biochem IC50 (nM) Mean
Property: IC50

Worked set:
Compound | Test Target | IC50
Cc1ccc(-c2cc3c(N4CC5CCC(C4)N5C(=O)[C@@H]4C[C@H]4F)ncnc3[nH]2)cn1 | human JAK3 catalytic kinase (JH1) domain (Homo sapiens (Human)) | 1100 nM
O=C(C1CC1(F)F)N1C2CCC1CN(c1ncnn3cc(-c4cnn(C(F)F)c4)cc13)C2 (stereo not shown) | human JAK3 catalytic kinase (JH1) domain (Homo sapiens (Human)) | 4900 nM
Cn1cc(-c2cc3c(N4CC5CCC(C4)N5C(=O)[C@@H]4C[C@H]4F)ncnn3c2)c(F)n1 | human JAK3 catalytic kinase (JH1) domain (Homo sapiens (Human)) | 3270 nM

Could you now consider this next compound?
Record summary for Cn1cc(-c2cc3c(N4CC5CCC(C4)N5C(=O)[C@H]4C[C@H]4F)ncnn3c2)cn1 (racemic) [Example 60] : reported IC50 = 3080 nM

###

So I've got a bunch of compounds here, and I need their IC50 values.
# Test Target: human JAK1 catalytic kinase (JH1) domain (Homo sapiens (Human), UniProt P23458)
# Sequence (P23458 875-1153): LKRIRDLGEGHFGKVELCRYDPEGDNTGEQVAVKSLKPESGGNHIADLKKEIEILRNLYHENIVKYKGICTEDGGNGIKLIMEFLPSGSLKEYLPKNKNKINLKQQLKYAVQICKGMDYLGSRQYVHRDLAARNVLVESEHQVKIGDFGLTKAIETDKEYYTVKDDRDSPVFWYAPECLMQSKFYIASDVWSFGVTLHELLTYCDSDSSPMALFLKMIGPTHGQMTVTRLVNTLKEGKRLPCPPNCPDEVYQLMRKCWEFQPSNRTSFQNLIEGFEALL
# Measurement Protocol: ADP-Glo Kinase Assay, recombinant JAK1 catalytic kinase (JH1) domain
# Format: biochemical
# Setup Conditions: recombinant JH1 domain 4 nM, 35 μM ATP, JAK3-342 peptide, mean, read-out: JAK1 biochem IC50 (nM) Mean
Where a name gives a salt, the structure may show the parent alone.
Numbers only, in nM.

Completed entries (count: 5):
Compound | Value Unit | IC50
Cn1cc(-c2cc3c(N4CC5CCC(C4)N5C(=O)[C@H]4C[C@@H]4F)ncnn3c2)cn1 [Example 6] | nM | 682
O=C(CC(F)(F)F)N1C2CCC1CN(c1ncnn3cc(-c4cnn(C(F)F)c4)cc13)C2 | nM | 892
O=C([C@H]1C[C@@H]1F)N1C2CCC1CN(c1ncnn3cc(-c4cnn(C(F)F)c4)cc13)C2 (single isomer, unassigned) [Example 75] | nM | 1580
N#CC1(C(=O)N2C3CCC2CN(c2ncnn4cc(-c5cnn(C(F)F)c5)cc24)C3)CC1 [Example 30, trifluoroacetate] | nM | 191
CC(C)n1ncc(-c2cc3c(N4CC5CCC(C4)N5C(=O)C4CC4)ncnn3c2)c1F | nM | 210

Provide IC50 for all items below, preserving their order.
1. O=C([C@@H]1C[C@H]1F)N1C2CCC1CN(c1ncnc3[nH]c(-c4ccnc(C(F)(F)F)c4)cc13)C2
2. O=C(C1CC1)N1C2CCC1CN(c1ncnn3cc(-c4cnn(C5CCOC5)c4)cc13)C2 (stereo not shown)

(A)
308
1670
